# hAMYR3 Potency, 1% HSA, EC50 [pM] values compiled below
# measurement-target: T1, human amylin-3(a) receptor (human, UniProt P30988 25-474; O60896 24-148)
# T1 sequence (looked up) 1: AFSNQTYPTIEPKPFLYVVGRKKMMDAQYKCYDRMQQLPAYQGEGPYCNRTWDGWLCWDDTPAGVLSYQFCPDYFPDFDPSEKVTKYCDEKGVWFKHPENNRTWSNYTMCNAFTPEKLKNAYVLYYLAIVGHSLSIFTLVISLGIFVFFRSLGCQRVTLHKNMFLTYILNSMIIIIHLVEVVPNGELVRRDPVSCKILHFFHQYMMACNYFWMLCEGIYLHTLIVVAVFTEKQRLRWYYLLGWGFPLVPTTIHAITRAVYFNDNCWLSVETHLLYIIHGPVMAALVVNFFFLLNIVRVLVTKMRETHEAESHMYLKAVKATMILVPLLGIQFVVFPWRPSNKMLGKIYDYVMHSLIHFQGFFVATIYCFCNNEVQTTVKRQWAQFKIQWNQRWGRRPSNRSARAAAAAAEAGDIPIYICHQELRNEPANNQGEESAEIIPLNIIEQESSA
# T1 sequence (looked up) 2: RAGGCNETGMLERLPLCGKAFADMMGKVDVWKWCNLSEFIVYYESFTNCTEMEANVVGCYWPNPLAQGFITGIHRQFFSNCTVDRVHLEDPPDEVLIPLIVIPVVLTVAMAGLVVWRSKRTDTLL
# test-method-notes: cell-based or functional assay
Numbered stars: 1 amine (or outer) side, 2 acyl side, 3 side chain; on linkers, the order of the positions; unused ones are H or OH. Square brackets hold non-standard residues; d marks the D form. Side chains are listed from the residue outwards. * marks the point of attachment. C20 diacid = O=C(O)CCCCCCCCCCCCCCCCCCC(=O)*; C18 diacid = O=C(O)CCCCCCCCCCCCCCCCC(=O)*; C16 diacid = O=C(O)CCCCCCCCCCCCCCC(=O)*; γGlu = O=C(O)[C@H](CCC(=O)[*:2])N[*:1]; Chem. 27 = not defined here; Chem. 28 = not defined here; Chem. 29 = not defined here; AEEA = NCCOCCOCC(=O)O; Aib = CC(C)(N)C(=O)O
Numeric answer only, unit pM assumed.

binder: Compound 88 (peptide) peptide: H[Aib]HGTFTSDYSILLEEQAAREFIEWLLAGGPSSGEASHLSTAALGRLSAELHK([AEEA-AEEA-γGlu-C18 diacid])LATLPRTETGSGSP-NH2
hAMYR3 Potency, 1% HSA, EC50 [pM] / pM: 102
--
binder: Compound 104 (reading uncertain) peptide: H[Aib]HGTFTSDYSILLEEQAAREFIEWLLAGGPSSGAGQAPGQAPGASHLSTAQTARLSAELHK(Chem. 27)LATLPRTETGSGSP-NH2
hAMYR3 Potency, 1% HSA, EC50 [pM] / pM: 293
--
binder: Compound 11 (reading uncertain) peptide: Y[Aib]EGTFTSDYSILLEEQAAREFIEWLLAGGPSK(Chem. 29)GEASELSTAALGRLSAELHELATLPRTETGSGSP-NH2
hAMYR3 Potency, 1% HSA, EC50 [pM] / pM: 211
--
binder: Compound 71 (peptide) peptide: H[Aib]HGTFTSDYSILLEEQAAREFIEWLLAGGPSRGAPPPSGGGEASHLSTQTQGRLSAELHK([AEEA-AEEA-γGlu-C18 diacid])LATLPRTETGSGSP-NH2
hAMYR3 Potency, 1% HSA, EC50 [pM] / pM: 274
--
binder: Compound 63 (peptide) peptide: H[Aib]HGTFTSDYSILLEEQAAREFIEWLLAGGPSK([AEEA-AEEA-γGlu-C18 diacid])GEASQLSTAALGRLSAELHTLATLPRTETGSGSP-NH2
hAMYR3 Potency, 1% HSA, EC50 [pM] / pM: 70.2
--
binder: Compound 77 (peptide) peptide: Y[Aib]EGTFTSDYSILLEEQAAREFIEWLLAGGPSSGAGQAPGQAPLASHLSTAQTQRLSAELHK([AEEA-AEEA-γGlu-C20 diacid])LATLPRTETGSGSP-NH2
hAMYR3 Potency, 1% HSA, EC50 [pM] / pM: 382
--
binder: Compound 58 (reading uncertain) peptide: Y[Aib]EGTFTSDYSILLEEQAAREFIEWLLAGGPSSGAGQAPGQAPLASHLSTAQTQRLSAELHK(Chem. 28)LATLPRTETGSGSP-NH2
hAMYR3 Potency, 1% HSA, EC50 [pM] / pM: 134
--
binder: Compound 105 (reading uncertain) peptide: Y[Aib]EGTFTSDYSILLEEQAAREFIEWLLAGGPSSGALQAPGQAPLASHLSTAQTARLSAELHK(Chem. 28)LATLPRTETGSGSP-NH2
hAMYR3 Potency, 1% HSA, EC50 [pM] / pM: 113
--
binder: Compound 90 (peptide) peptide: H[Aib]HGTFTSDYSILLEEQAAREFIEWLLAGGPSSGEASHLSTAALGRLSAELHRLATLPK([AEEA-AEEA-γGlu-C18 diacid])TETGSGSP-NH2
hAMYR3 Potency, 1% HSA, EC50 [pM] / pM: 183
--
binder: Compound 62 (peptide) peptide: H[Aib]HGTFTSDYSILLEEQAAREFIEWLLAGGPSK([AEEA-AEEA-γGlu-C16 diacid])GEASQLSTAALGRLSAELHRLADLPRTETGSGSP-NH2
hAMYR3 Potency, 1% HSA, EC50 [pM] / pM: 28.8

What does the record list as hAMYR3 Potency, 1% HSA, EC50 [pM] for Compound 38 (reading uncertain) peptide: Y[Aib]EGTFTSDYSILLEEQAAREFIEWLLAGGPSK(Chem. 28)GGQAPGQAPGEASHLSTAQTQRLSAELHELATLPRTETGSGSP-NH2 ?
172

How about Compound 73 (peptide) peptide: H[Aib]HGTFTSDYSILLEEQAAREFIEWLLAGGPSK([AEEA-AEEA-γGlu-C18 diacid])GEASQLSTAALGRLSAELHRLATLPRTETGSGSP-NH2 ?
61.5

Next binder: Compound 107 (reading uncertain) peptide: H[Aib]HGTFTSDYSILLEEQAAREFIEWLLAGGPSSGALQAPGQAPGASHLSTAQTARLSAELHRLATLPK(Chem. 28)TETGSGSP-NH2
93.1

Query Compound 51 (reading uncertain) peptide: H[Aib]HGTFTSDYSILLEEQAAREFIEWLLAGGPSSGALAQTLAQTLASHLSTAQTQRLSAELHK(Chem. 28)LATLPRTETGSGSP-NH2 next
57.1

Moving on to Compound 17 (peptide) peptide: H[Aib]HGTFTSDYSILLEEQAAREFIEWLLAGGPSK([AEEA-AEEA-γGlu-C16 diacid])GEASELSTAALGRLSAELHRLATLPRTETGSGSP-NH2
33.6

// next record Compound 87 (peptide) peptide: H[Aib]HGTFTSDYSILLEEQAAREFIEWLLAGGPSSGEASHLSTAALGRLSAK([AEEA-AEEA-γGlu-C18 diacid])LHRLATLPRTETGSGSP-NH2
36.5

Value source: patent US20260174875A1
